Values were extracted from ChEMBL document CHEMBL1201862.

The entries below come with measured GI50 values attached.
- Test system: K562
- Test Protocol: NCI tumour cell line growth inhibition, 48 h
Active and inactive are the calls of the source. Rule as the data show it: active = GI50 up to about 1.1 µM and inactive = higher.

Compound	Experimental Value
Cn1c(=O)c2c(ncn2CCCCOc2ccc3c(c2)[n+]([O-])nc(N)[n+]3[O-])n(C)c1=O	20.9 µM (inactive)
O=c1[nH]c(=O)n(COC(CO)CO)cc1-c1ccccc1	> 100 µM (inactive)
CN1C(=O)C(C#N)C2C[C@@]1(C)Oc1ccccc12 (stereo partly specified)	> 100 µM (inactive)
COC(=O)c1cnn2c1n[n+]([O-])c1ccccc12	> 100 µM (inactive)
CN1CCN(/C(N)=C(\C#N)C(=O)Nc2ccc(Cl)cc2)CC1	23 µM (inactive)

# next compound below
// GI50 lookup, compound = CN(C)CCn1c(=O)c2ccc(NCCNCCO)c3c(=O)c4ccccc4n(c1=O)c23 , result: 0.0245 µM (active)

---

- System: SK-MEL-28
- Test Protocol: NCI tumour cell line growth inhibition, 48 h
Calls of active or inactive are those of the source. Rule as the data show it: active = GI50 up to about 1.1 µM and inactive = higher.
Select the matching outcome among true (1) for active, false (0) for inactive

Molecule	Qualitative Label
CCOC(=O)c1sc2c(C(=O)OCC)n3ccccc3c2c1N	false (0)
Cc1nn(-c2ccccc2)c2nc3c(c(C)nn3-c3ccccc3)c(-c3ccc(C(F)(F)F)cc3)c12	false (0)
CC(=O)NC1C(OCc2ccccc2)OC(CO)C(O)C1OC(C)C(=O)NC(C)C(=O)NC(CCC(=O)NCCCCNc1c2ccccc2nc2cccc([N+](=O)[O-])c12)C(N)=O (stereo not given)	true (1)

Challenge: Please state the recorded outcome for this molecule: CC12CC(=O)OC(Cc3ccccc31)O2 (stereo not given)
Response given: false (0)

Challenge: Hello, I am checking results. What call was entered for N#Cc1c(N)c2c(c(-c3ccccc3)c1-c1ccccc1)C(=O)N(NC(=S)Nc1ccccc1)C2=O ?
Response given: false (0)

Challenge: Please state the recorded outcome for this molecule: COC(=O)CC1C2CC3C(C2=O)C13 (stereo not given)
Response given: false (0)

Challenge: Tell me the recorded outcome of this test for COc1ccc(CN2CCC/C=C/CC(Cl)(Cl)C2=O)cc1 .
Response given: false (0)

Challenge: Could you kindly confirm the outcome this assay logged for COC(=O)CCC(=O)N1Cc2cc(C)ccc2N(C(=O)CCC(=O)OC)Cc2cc(C)ccc21 ?
Response given: false (0)

Challenge: Called result for Cn1cnc(C(N)=[Se])c1N
Response given: false (0)

Challenge: Record lookup: outcome of this test for Cc1ccc(/N=C/c2ccc3c(c2)OCO3)cc1C ?
Response given: false (0)

---

Let's look at some molecules and their measured GI50.
- System: COLO 205
- Test Protocol: NCI tumour cell line growth inhibition, 48 h
Activity calls are given as the source filed them. Cut-off read from the data, not from the text of the source: active = GI50 up to about 1.1 µM and inactive = higher.

Given the molecule CN1C(c2ccccc2)=CC(=O)C(O)=C(c2ccccc2)S1(=O)=O and test system COLO 205, the measured GI50 is > 100 µM (inactive)

Record CCOC1(OCC)N=C(N)C2(C#N)C3(C(=O)N(C(C)C)N=C3C)C12C#N (centres undefined) has COLO 205 GI50 equal to > 100 µM (inactive)

Measured on COLO 205, CO[C@@H]1[C@H](O)CC[C@]2(CO2)[C@H]1[C@@]1(C)O[C@@H]1CC=C(C)C has a documented GI50 of 152 µM (inactive)

Form field, GI50 with COLO 205, item Cc1ccccc1/N=N/c1c(O)ccc2ccccc12 : > 100 µM (inactive)

GI50 value, target or system COLO 205, for C=CC(=O)c1ccc2c(c1)OCCOCCOCCOCCOCCO2 : 17.7 µM (inactive)

COLO 205 assay, molecule CCCCC(CC)C(=O)Oc1ccc(C(=O)c2ccccc2)c(O)c1 (centres undefined) , recorded GI50 = 61.2 µM (inactive)

Let me check: Fc1cccc(C2SCc3nc4ccccc4n32)c1 (centres undefined) , system COLO 205, measured GI50 is 71.4 µM (inactive)

Given the molecule N#CC1C(=O)NC(=O)C1=O (centres undefined) and test system COLO 205, the measured GI50 is > 100 µM (inactive)

Lab note: molecule O=[N+]([O-])c1ccccc1C1N2CCCCC2[C@@H]2c3[nH]c4ccccc4c3CCN12 (some centres undefined) tested on COLO 205; recorded GI50 was 13.2 µM (inactive)
